molecular target: T1, cyno FcRn/b2M (cyno, UniProt Q8SPV9 24-297; Q8SPW0 21-119, biotinylated); experiment: SPR off-rate; pH 7.4 vs pH 6.0;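 note: surface plasmon resonance with diluted periplasmic extracts flowed over ligand surfaces, 120 s association and 600–3600 s dissociation at 25 °C, running buffer containing 150 mM NaCl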
T1 construct: bought recombinant biotinylated protein (Immunitrack ITF05 or ACRO FCM-C82W5); also called cFcRn; cFcRn/cb2M
T1 sequence (Q8SPV9 24-297 limits assumed, chain 1 of 2): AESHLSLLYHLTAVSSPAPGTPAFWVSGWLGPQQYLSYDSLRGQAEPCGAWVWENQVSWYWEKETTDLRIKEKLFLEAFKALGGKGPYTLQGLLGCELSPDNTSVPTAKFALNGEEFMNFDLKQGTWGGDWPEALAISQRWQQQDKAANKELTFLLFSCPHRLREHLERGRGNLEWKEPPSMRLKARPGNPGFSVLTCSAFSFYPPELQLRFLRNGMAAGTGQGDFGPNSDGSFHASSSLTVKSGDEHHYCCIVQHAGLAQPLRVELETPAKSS
T1 sequence (Q8SPW0 21-119 limits assumed, chain 2 of 2): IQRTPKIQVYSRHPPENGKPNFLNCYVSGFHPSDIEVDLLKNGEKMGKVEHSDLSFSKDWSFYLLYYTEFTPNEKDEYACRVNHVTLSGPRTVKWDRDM
PROPERTY_MEASURED: kd ratio pH 7.4/6.0

• T0263018B11 S52aG (VHH, name in Kabat numbering, FLAG3-His6 tagged) VHH: EVQLVESGGGVVQPGGSLRLSCAASGFTFSSYAMYWVRQAPGKGLEWVSAISGGGGSTDYADSVKGRFTISRDNSKNTLYLQMNSLRPEDTALYYCAADTLYTSLTWYSYWGQGTLVTVSS = 51
• T0263018B11 S52aP (VHH, name in Kabat numbering, FLAG3-His6 tagged) VHH: EVQLVESGGGVVQPGGSLRLSCAASGFTFSSYAMYWVRQAPGKGLEWVSAISPGGGSTDYADSVKGRFTISRDNSKNTLYLQMNSLRPEDTALYYCAADTLYTSLTWYSYWGQGTLVTVSS = 71
